Test system: CHIKV
Format: cell-based, chikungunya virus
Label class 1 when Score_si1 is at or above 0.8; anything below gets class 0.

Here's what some known entries look like.
Substance	Assay target	Answer label
Hs_GRB10_2 (sense CTACCGTATAGTAACACTGTA; chemistry not given here)	CHIKV	class 1
Hs_PRPF40A_2 (sense CTGGAAAGCCTTACTATTATA; chemistry not given here)	CHIKV	class 1
Hs_CRSP8_1 (sense AACGAGAATGTCTACACAGAA; chemistry not given here) [reference compound]	CHIKV	class 0
Hs_SEC61B_1 (sense TTTAATTCACTTATACTGAAA; chemistry not given here)	CHIKV	class 1
Hs_DOK6_5 (CTGAGCAACATGAAAGATTAA; chemistry not given here) [reference compound]	CHIKV	class 0

Now look at this entry.
// query Answer whether Score_si1 of Hs_KIAA0252_2 (sense AAGGAATTATCTATTAAAGAA; chemistry not given here) is greater than or equal to 0.8.
// result class 1

----------
System: CHIKV
Assay type: cell-based, chikungunya virus
Measured Score_si1, listed per entry.
When you answer, write just the number.

Worked examples, 6 substances total:
Substance	Observed value
Hs_RORC_2 (sense TAGGATGTGCCGGGCCTACAA; chemistry not given here)	1.28
Hs_ROCK1_9 (sense AACGGTTAGAACAAGAGGTAA; chemistry not given here)	1.18
Hs_MRPS12_7 (TTCCATCAGGACCACTATTAA; chemistry not given here)	1.99
Hs_PHF10_5 (ATGGCAGTGTATGGAATGTAA; chemistry not given here)	2.93
s11515 (sense GGATAACACTGTACAAGCT; chemistry not given here)	1.79
s32489 (GGAACAAGCTGTGATCCCA; chemistry not given here)	1.66

// query Give its Score_si1 value. Item: Hs_LOC283377_3 (sense CAGGCCTTTCTCAGACTGTAT; chemistry not given here)
// result 2.72

// query Give its Score_si1 value. Item: Hs_LRP6_7 (CTGGATGGTTCTGACCGTGTA; chemistry not given here)
// result 1.93

----------
Tested on: CHIKV
Assay type: cell-based, chikungunya virus
Label satisfied when Score_si2 is at or above 1; anything below gets not satisfied.

Here's what some known entries look like.
Substance	Answer label
s14080 (sense GAGTGGTCTTTTCAACACT; chemistry not given here)	satisfied
Hs_PTBP1_5 (sense CACGCACATTCCGTTGCCTTA; chemistry not given here) [reference compound]	not satisfied
Hs_PHF10_3 (CGGACAGTTCCAGGAATATTA; chemistry not given here)	not satisfied
Hs_LRP6_2 (CTGGATTGTTATCCGACTGAA; chemistry not given here)	satisfied
Hs_C14orf160_2 (ATGGAGTTACTGAAATGTATA; chemistry not given here) [reference compound]	not satisfied
Hs_PPP1R8_6 (TACAAATAAAGATGCCCTAAA; chemistry not given here)	not satisfied
s12110 (sense CAATCTCTCTTATCCTTGA; chemistry not given here)	satisfied
s38293 (GTAACAACAAATACTCATA; chemistry not given here)	satisfied

// query Answer whether Score_si2 of s9338 (ACAAGCTCTCCAACAATTA; chemistry not given here) [reference compound] is greater than or equal to 1.
// result not satisfied

// query Answer whether Score_si2 of s195060 (sense CCAGATCTATGAATTGGAA; chemistry not given here) is greater than or equal to 1.
// result satisfied
